// data source = patent US20180000952A1

- study.system: recombinant human DHFR (Homo sapiens, UniProt P00374)
- Construct: purchased Sigma CS0340
- Sequence (P00374 1-187): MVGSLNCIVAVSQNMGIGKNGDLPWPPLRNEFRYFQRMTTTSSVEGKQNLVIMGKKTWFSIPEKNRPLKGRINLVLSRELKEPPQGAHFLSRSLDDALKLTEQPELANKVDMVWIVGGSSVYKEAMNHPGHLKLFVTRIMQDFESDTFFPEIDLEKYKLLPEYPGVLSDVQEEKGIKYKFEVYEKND
- experiment.summary: Dihydrofolate reductase (DHFR) inhibitory activity assay
- Assay type: biochemical
- experimental.conditions: compound as shown (ester or unmodified modulator, or named acid); read-out: IC50 nM enzyme (DHFR)
recorded.endpoint: log10(IC50) (log10 of the value in nM)
Heads up, the numbers here are log10 of IC50 in nM units.

Use the examples below as a reference point.
1. Cc1c(CNc2ccc(C(=O)N[C@@H](CC(C)C)C(=O)OC3CCCC3)cc2)cnc2nc(N)nc(N)c12 [Compound (6)] :: 3.23
2. Cc1c(CNc2ccc(OCCC(N)C(=O)OC3CCCC3)cc2)cnc2nc(N)nc(N)c12 (stereo not shown) :: 3.43
3. COc1cc(NCc2cnc3nc(N)nc(N)c3c2C)cc(OC)c1OC [Compound (2 G=N), reference compound] :: 1.00
4. Cc1c(CNc2ccc(C(=O)NC(CC(C)C)C(=O)OC3CCCC3)cc2)cnc2nc(N)nc(N)c12 (stereo not shown) :: 3.23
5. Cc1c(CNc2ccc(C(=O)N[C@@H](CC(C)C)C(=O)O)cc2)cnc2nc(N)nc(N)c12 [Compound (19)] :: 1.00
6. Cc1c(CNc2ccc(CNC(CC(C)C)C(=O)OC3CCCC3)cc2)cnc2nc(N)nc(N)c12 (stereo not shown) :: 3.60

Below: the item to evaluate.
Output measured log10(IC50) for this item: Cc1c(CNc2ccc(OCCC(NC3CCCCC3)C(=O)OC3CCCC3)cc2)cnc2nc(N)nc(N)c12 (stereo not shown)
3.01

----------
- study.system: recombinant human DHFR (Homo sapiens, UniProt P00374)
- Construct: purchased Sigma CS0340
- experiment.summary: Dihydrofolate reductase (DHFR) inhibitory activity assay
- Assay type: biochemical
- experimental.conditions: enzyme IC50 for the acid resulting from cleavage of the ester shown; read-out: IC50 nM enzyme (acid), figures in brackets
In this section we review reported IC50 values for a set of compounds.
I'd appreciate it if you included the unit after the number.

1. Cc1c(CNc2ccc(OCCC(NC3CCCCC3)C(=O)OC3CCCC3)cc2)cnc2nc(N)nc(N)c12 (stereo not shown) :: 25 nM

Output measured IC50 for this item: Cc1c(CNc2ccc(C(=O)NC(CC(C)C)C(=O)OC3CCCC3)cc2)cnc2nc(N)nc(N)c12 (stereo not shown)
8 nM

Output measured IC50 for this item: Cc1c(CNc2ccc(CNC(CC(C)C)C(=O)OC3CCCC3)cc2)cnc2nc(N)nc(N)c12 (stereo not shown)
10 nM

Output measured IC50 for this item: Cc1c(CNc2ccc(OCCC(N)C(=O)OC3CCCC3)cc2)cnc2nc(N)nc(N)c12 (stereo not shown)
11 nM
